Target system: HLA class I molecule
Assay protocol: HLA class I peptide binding affinity assay (inhibition of 125I-radiolabeled probe peptide binding to purified HLA)
Set-up: species or system human
Run conditions: Allele A11.01; read-out: Observed Affinity (IC50; (nM))
Where no end group is shown, it is not given here.

- Residue string: "AMTTSSSQK"
  U: "nM"
  IC50: 162
- Residue string: "SLKKVPALK"
  U: "nM"
  IC50: 129
- Residue string: "SAMTTSSSQK"
  U: "nM"
  IC50: 15.8
- Residue string: "KISNWSLKK"
  U: "nM"
  IC50: 9.8

###

Target system: HLA class I molecule
Assay protocol: HLA class I peptide binding affinity assay (inhibition of 125I-radiolabeled probe peptide binding to purified HLA)
Parameters: species or system human
Run conditions: allele B08.01; read-out: Observed Affinity (IC50; (nM))
Where no end group is shown, it is not given here.
Measurement type: log10(IC50) (log10 of the value in nM)

- Residue string: "YLGNHMNIA"
  log10(IC50): 2.94
- Residue string: "LKKLRSPL"
  log10(IC50): -0.22
- Residue string: "WLHKRGKYI"
  log10(IC50): 2.62
- Residue string: "YQQQQQSDL"
  log10(IC50): 4.28
- Residue string: "FELLSTPPL"
  log10(IC50): 3.50
- Residue string: "LATEKSRWS"
  log10(IC50): 4.57
- Residue string: "LATEKSRWSG"
  log10(IC50): 4.67

###

Target system: HLA class I molecule
Assay protocol: HLA class I peptide binding affinity assay (inhibition of 125I-radiolabeled probe peptide binding to purified HLA)
Design: species or system human
Run conditions: allele A02.01; read-out: Observed Affinity (IC50; (nM))
Where no end group is shown, it is not given here.
Class (required): determined from IC50; valid ranges are range A = under 200 nM, range B = from 200 nM up to 800 nM, range C = 800 nM and over

- Residue string: "LQVTQTSFAL [LQVTQTSFAL]"
  Target system: "HLA class I molecule"
  Assigned class: "range B"
- Residue string: "IVSRTLLLV"
  Target system: "HLA class I molecule"
  Assigned class: "range A"
- Residue string: "NSFEVHVCA"
  Target system: "HLA class I molecule"
  Assigned class: "range B"
- Residue string: "ALWECSLPQA"
  Target system: "HLA class I molecule"
  Assigned class: "range A"
- Residue string: "TIGGPTLVII"
  Target system: "HLA class I molecule"
  Assigned class: "range C"
- Residue string: "ILMELMAGG"
  Target system: "HLA class I molecule"
  Assigned class: "range B"
- Residue string: "ALSASNSCF"
  Target system: "HLA class I molecule"
  Assigned class: "range B"
- Residue string: "GMNQRPILT"
  Target system: "HLA class I molecule"
  Assigned class: "range C"
- Residue string: "WMTETLFDIV"
  Target system: "HLA class I molecule"
  Assigned class: "range A"
- Residue string: "PLCDLLLEM"
  Target system: "HLA class I molecule"
  Assigned class: "range B"
- Residue string: "VQWRSLGSL"
  Target system: "HLA class I molecule"
  Assigned class: "range C"
- Residue string: "FSGEYIPTV"
  Target system: "HLA class I molecule"
  Assigned class: "range A"
- Residue string: "KSLVRLSSCV"
  Target system: "HLA class I molecule"
  Assigned class: "range B"
- Residue string: "KLGGGQHGEV"
  Target system: "HLA class I molecule"
  Assigned class: "range B"
- Residue string: "PLSDLLLEML"
  Target system: "HLA class I molecule"
  Assigned class: "range C"
- Residue string: "RLWHLLLQVT"
  Target system: "HLA class I molecule"
  Assigned class: "range A"
- Residue string: "KKLMLLRLNL"
  Target system: "HLA class I molecule"
  Assigned class: "range B"
- Residue string: "ILIRKAMTV"
  Target system: "HLA class I molecule"
  Assigned class: "range A"
- Residue string: "SMLTDSLFL"
  Target system: "HLA class I molecule"
  Assigned class: "range A"
- Residue string: "LQMDFLVHPA"
  Target system: "HLA class I molecule"
  Assigned class: "range A"
- Residue string: "LQEFDVQEAL [LQEFDVQEAL]"
  Target system: "HLA class I molecule"
  Assigned class: "range C"
- Residue string: "PLYGLLLEM"
  Target system: "HLA class I molecule"
  Assigned class: "range B"
- Residue string: "GLLLEMLDA"
  Target system: "HLA class I molecule"
  Assigned class: "range B"
- Residue string: "LVVVGACGV"
  Target system: "HLA class I molecule"
  Assigned class: "range C"
- Residue string: "YLGNHMNIAN"
  Target system: "HLA class I molecule"
  Assigned class: "range C"
- Residue string: "AIQPVLWTT"
  Target system: "HLA class I molecule"
  Assigned class: "range A"
- Residue string: "NVVPLNDLL"
  Target system: "HLA class I molecule"
  Assigned class: "range C"
- Residue string: "VVPLSDLLL"
  Target system: "HLA class I molecule"
  Assigned class: "range C"
- Residue string: "NVVPLYGLL"
  Target system: "HLA class I molecule"
  Assigned class: "range C"
- Residue string: "ALEEKKGNYV"
  Target system: "HLA class I molecule"
  Assigned class: "range A"
- Residue string: "MNWRPILTII"
  Target system: "HLA class I molecule"
  Assigned class: "range C"
- Residue string: "AQAGVQWRSL"
  Target system: "HLA class I molecule"
  Assigned class: "range B"
- Residue string: "FFFETKSCSV"
  Target system: "HLA class I molecule"
  Assigned class: "range A"

###

Tested on: HLA Class I molecules
Assay protocol: HLA class I binding stability assay (pMHC-I complex dissociation, 125I-labeled β2m, scintillation counts)
Design: species or system human
Run conditions: allele A02.01; pMHC-I dissociation at 37° C.
Where no end group is shown, it is not given here.
Collected Stability (T1/2 (h)) values appear next to each entry.

- Residue string: "VLLSVHLIV"
  U: "h"
  Stability (T1/2 (h)): 11
- Residue string: "LQMDFLVHPA"
  U: "h"
  Stability (T1/2 (h)): 1.5
- Residue string: "WLHKRGKYI"
  U: "h"
  Stability (T1/2 (h)): 1.2
- Residue string: "GVYTFLPSTL"
  U: "h"
  Stability (T1/2 (h)): 0.4
- Residue string: "GVYTFLPST"
  U: "h"
  Stability (T1/2 (h)): 1.3
- Residue string: "RVAKIADFGM"
  U: "h"
  Stability (T1/2 (h)): 0.5
- Residue string: "PLYGLLLEM"
  U: "h"
  Stability (T1/2 (h)): 0.7

###

Target system: HLA class I molecule
Assay protocol: HLA class I peptide binding affinity assay (inhibition of 125I-radiolabeled probe peptide binding to purified HLA)
Parameters: species or system human
Run conditions: allele A02.01; read-out: Observed Affinity (IC50; (nM))
Where no end group is shown, it is not given here.
Note to self: use Fulfilled only for IC50 readings below 300 nM; a reading exactly at 300 nM still gets Not fulfilled.

- Residue string: "LLQVTQTSFA"
  Target system: "HLA class I molecule"
  Assigned class: "Not fulfilled"
- Residue string: "VVPLCDLLL"
  Target system: "HLA class I molecule"
  Assigned class: "Not fulfilled"
- Residue string: "IIEYCFYGDL"
  Target system: "HLA class I molecule"
  Assigned class: "Not fulfilled"
- Residue string: "HMNIANLLGA"
  Target system: "HLA class I molecule"
  Assigned class: "Not fulfilled"
- Residue string: "RLSSCVPVAL [RLSSCVPVAL]"
  Target system: "HLA class I molecule"
  Assigned class: "Fulfilled"
- Residue string: "VMAGLGSPYV"
  Target system: "HLA class I molecule"
  Assigned class: "Fulfilled"
- Residue string: "PLNDLLLEML"
  Target system: "HLA class I molecule"
  Assigned class: "Not fulfilled"
- Residue string: "NVVPLSDLL"
  Target system: "HLA class I molecule"
  Assigned class: "Not fulfilled"
- Residue string: "IIIEFMTYG"
  Target system: "HLA class I molecule"
  Assigned class: "Not fulfilled"
- Residue string: "GLLAFWDSQV"
  Target system: "HLA class I molecule"
  Assigned class: "Fulfilled"
- Residue string: "LLAFWDSQV"
  Target system: "HLA class I molecule"
  Assigned class: "Fulfilled"
- Residue string: "LATEKSRWS"
  Target system: "HLA class I molecule"
  Assigned class: "Not fulfilled"
- Residue string: "FQNGKMALS [FQNGKMALS]"
  Target system: "HLA class I molecule"
  Assigned class: "Not fulfilled"
- Residue string: "QQSDLQPPA"
  Target system: "HLA class I molecule"
  Assigned class: "Fulfilled"
- Residue string: "KGPELFPLI"
  Target system: "HLA class I molecule"
  Assigned class: "Fulfilled"
- Residue string: "ALSASNSCFI"
  Target system: "HLA class I molecule"
  Assigned class: "Fulfilled"
- Residue string: "KLFSCLSFLS"
  Target system: "HLA class I molecule"
  Assigned class: "Fulfilled"
- Residue string: "IANLLGACTI"
  Target system: "HLA class I molecule"
  Assigned class: "Not fulfilled"
- Residue string: "NVVPLNDLLL"
  Target system: "HLA class I molecule"
  Assigned class: "Not fulfilled"
- Residue string: "QLIMQLMPFG"
  Target system: "HLA class I molecule"
  Assigned class: "Not fulfilled"
- Residue string: "YLVIQLQDKF"
  Target system: "HLA class I molecule"
  Assigned class: "Not fulfilled"
- Residue string: "STVQLIMQL"
  Target system: "HLA class I molecule"
  Assigned class: "Not fulfilled"
- Residue string: "SLYIVGFYGA"
  Target system: "HLA class I molecule"
  Assigned class: "Not fulfilled"
- Residue string: "LIMQLMPFG"
  Target system: "HLA class I molecule"
  Assigned class: "Not fulfilled"
- Residue string: "PLCDLLLEML"
  Target system: "HLA class I molecule"
  Assigned class: "Not fulfilled"
- Residue string: "SLYIVGFYG"
  Target system: "HLA class I molecule"
  Assigned class: "Not fulfilled"
- Residue string: "SLVRLSSCV"
  Target system: "HLA class I molecule"
  Assigned class: "Fulfilled"
- Residue string: "YLTKWPKFFL"
  Target system: "HLA class I molecule"
  Assigned class: "Fulfilled"
- Residue string: "YIIIEFMTYG"
  Target system: "HLA class I molecule"
  Assigned class: "Fulfilled"
- Residue string: "ALAPTLTHML"
  Target system: "HLA class I molecule"
  Assigned class: "Fulfilled"
- Residue string: "IIEFMTYGNL"
  Target system: "HLA class I molecule"
  Assigned class: "Not fulfilled"
- Residue string: "WMTETLFDI"
  Target system: "HLA class I molecule"
  Assigned class: "Fulfilled"
- Residue string: "LATEKSRWSG"
  Target system: "HLA class I molecule"
  Assigned class: "Not fulfilled"
- Residue string: "LLSTPPLSPS"
  Target system: "HLA class I molecule"
  Assigned class: "Not fulfilled"
- Residue string: "VRLSSCVPVA"
  Target system: "HLA class I molecule"
  Assigned class: "Not fulfilled"
- Residue string: "FVMSDTTYKI"
  Target system: "HLA class I molecule"
  Assigned class: "Fulfilled"
- Residue string: "FELLSTPPL"
  Target system: "HLA class I molecule"
  Assigned class: "Fulfilled"
- Residue string: "FALCGFWQI"
  Target system: "HLA class I molecule"
  Assigned class: "Fulfilled"
- Residue string: "YITAFFLLDI"
  Target system: "HLA class I molecule"
  Assigned class: "Fulfilled"
- Residue string: "ILLPEDTPPL"
  Target system: "HLA class I molecule"
  Assigned class: "Fulfilled"
- Residue string: "ALSEHCPTT"
  Target system: "HLA class I molecule"
  Assigned class: "Fulfilled"
- Residue string: "VLLSVHLIV"
  Target system: "HLA class I molecule"
  Assigned class: "Fulfilled"
- Residue string: "GVYTFLPST"
  Target system: "HLA class I molecule"
  Assigned class: "Not fulfilled"
- Residue string: "ALFFFFFET"
  Target system: "HLA class I molecule"
  Assigned class: "Not fulfilled"
- Residue string: "ALMSAMTTS"
  Target system: "HLA class I molecule"
  Assigned class: "Fulfilled"
- Residue string: "FLSSWDYRRM"
  Target system: "HLA class I molecule"
  Assigned class: "Not fulfilled"
- Residue string: "ILMELMAGGD"
  Target system: "HLA class I molecule"
  Assigned class: "Not fulfilled"
- Residue string: "NVVPLSDLLL"
  Target system: "HLA class I molecule"
  Assigned class: "Not fulfilled"
- Residue string: "ALQPLQPHA"
  Target system: "HLA class I molecule"
  Assigned class: "Not fulfilled"
- Residue string: "YQQQQQSDL"
  Target system: "HLA class I molecule"
  Assigned class: "Not fulfilled"
- Residue string: "YLGNHMNIA"
  Target system: "HLA class I molecule"
  Assigned class: "Fulfilled"
